# System: LMP1 expression in Kem I cells
# assay.info: microbe, parasite or virus in culture
# Format: cell-based, EBV
# setup.conditions: human gammaherpesvirus 4, 48 h, read-out: Average LMP1 Fold Increase, Kem I cells, 2.5 uM, 48 hours, average of replicates 1 and 2
experimental.readout: fold induction at 2.5 µM

Examples with answers:
INSERT INTO assay_data (molecule, test_value) VALUES
  ('O=C(Nc1cc(C(F)(F)F)cc(C(F)(F)F)c1)c1cc(Cl)ccc1O [IMD 0354]', 0.62),
  ('CC#CCn1c(N2CCC[C@@H](N)C2)nc2c1c(=O)n(Cc1nc(C)c3ccccc3n1)c(=O)n2C [Linagliptin]', 0.91),
  ('COc1ccc2nc([S@@+]([O-])Cc3ncc(C)c(OC)c3C)[nH]c2c1 [Esomeprazole Sodium]', 0.3),
  ('O=C(O)c1ccc(Nc2ncc3c(n2)-c2ccc(Cl)cc2C(c2c(F)cccc2F)=NC3)cc1 [MLN8054]', 0.37),
  ('Oc1cc(O)cc(/C=C/c2ccc(O)c(O)c2)c1 [Piceatannol]', 0.75),
  ('CCOc1ccc(Cc2cc([C@@H]3O[C@H](CO)[C@@H](O)[C@H](O)[C@H]3O)ccc2Cl)cc1 [Dapagliflozin]', 1.01),
  ('C[C@H](CS)C(=O)N1CCC[C@H]1C(=O)O [Captopril]', 0.62),
  ('CC(C)(C)NC(=O)[C@H]1CC[C@H]2[C@@H]3CC[C@H]4NC(=O)C=C[C@]4(C)[C@H]3CC[C@]12C [Finasteride]', 0.66);

# next molecule below
[ask] Give the reported fold induction at 2.5 µM for Cc1ccccc1C(C(=O)NC1CCCCC1)N(C(=O)Cn1ccnc1C)c1cccc(F)c1 (centres unmarked) [AGI-5198] (system: LMP1 expression in Kem I cells).
[reply] 0.82

====

# Test system: LMP1 expression in Kem I cells
# assay.info: microbe, parasite or virus in culture
# Type: cell-based, EBV
# setup.conditions: human gammaherpesvirus 4, 48 h, read-out: Replicate 2-LMP1 Fold Increase, Kem I cells, 2.5 uM, 48 hours, fold change in LMP1 transcript vs vehicle
Counter-ions that a name gives are not always drawn.
experimental.readout: fold induction at 2.5 µM
API note: the answer field is a bare number with no unit suffix.

INSERT INTO assay_data (compound, assayed_target, experimental_readout, test_value) VALUES
  ('Cc1[nH]c(/C=C2\C(=O)Nc3ccc(S(=O)(=O)Cc4c(Cl)cccc4Cl)cc32)c(C)c1C(=O)N1CCC[C@@H]1CN1CCCC1 [PHA-665752]', 'LMP1 expression in Kem I cells', 'fold induction at 2.5 µM', 0.84),
  ('CCOc1ccccc1-n1c(C(C)N2CCN(C(=O)COc3ccc(Cl)cc3)CC2)nc2ccccc2c1=O (stereo not shown) [Erastin]', 'LMP1 expression in Kem I cells', 'fold induction at 2.5 µM', 0.75),
  ('CCc1nc(N)nc(N)c1-c1ccc(Cl)cc1 [Pyrimethamine]', 'LMP1 expression in Kem I cells', 'fold induction at 2.5 µM', 0.9);

# next compound below
[ask] Request the reported fold induction at 2.5 µM associated with CC(C)NCC(O)COc1ccc(COCCOC(C)C)cc1 (stereo not shown) [Bisoprolol fumarate]
[reply] 1.73

====

# Tested on: LMP1 expression in Kem I cells
# assay.info: microbe, parasite or virus in culture
# Format: cell-based, EBV
# setup.conditions: human gammaherpesvirus 4, 48 h, read-out: Replicate 2-LMP1 Fold Increase, Kem I cells, 2.5 uM, 48 hours, fold change in LMP1 transcript vs vehicle
Where a name gives a salt, the structure may show the parent alone.
Here the recorded fold induction at 2.5 µM is given for each entry.
API note: the answer field is a bare number with no unit suffix.

Examples with answers:
INSERT INTO results (compound, experimental_readout, test_value) VALUES
  ('OC(CNCC(O)C1CCc2cc(F)ccc2O1)C1CCc2cc(F)ccc2O1 (centres unmarked)', 'fold induction at 2.5 µM', 1.49),
  ('CCN1CCC[C@H]1CNC(=O)c1cc(S(N)(=O)=O)ccc1OC [Levosulpiride]', 'fold induction at 2.5 µM', 0.3),
  ('O=C(O)Cn1nnc(-c2cc(N3CCC(Oc4cc(F)ccc4Br)CC3)no2)n1', 'fold induction at 2.5 µM', 0.84),
  ('C[C@@H](O[C@H]1OCCN(Cc2n[nH]c(=O)[nH]2)[C@H]1c1ccc(F)cc1)c1cc(C(F)(F)F)cc(C(F)(F)F)c1 [Aprepitant]', 'fold induction at 2.5 µM', 0.41);

[ask] Give the reported fold induction at 2.5 µM for Cc1ccccc1C(C(=O)NC1CCCCC1)N(C(=O)Cn1ccnc1C)c1cccc(F)c1 (centres unmarked) (system: LMP1 expression in Kem I cells).
[reply] 0.93

[ask] Give the reported fold induction at 2.5 µM for CCCCN1CCCCC1C(=O)Nc1c(C)cccc1C (centres unmarked) [Bupivacaine HCl] (system: LMP1 expression in Kem I cells).
[reply] 0.53

[ask] Give the reported fold induction at 2.5 µM for COc1ccc2nc([S@@+]([O-])Cc3ncc(C)c(OC)c3C)[nH]c2c1 [Esomeprazole Sodium] (system: LMP1 expression in Kem I cells).
[reply] 0.44

[ask] Give the reported fold induction at 2.5 µM for Cc1c(-c2ccc(O)cc2)n(Cc2ccc(OCCN3CCCCCC3)cc2)c2ccc(O)cc12 [Bazedoxifene HCl] (system: LMP1 expression in Kem I cells).
[reply] 0.56

[ask] Give the reported fold induction at 2.5 µM for Cc1cc(C(C)(C)C)c(O)c(C)c1CC1=NCCN1 [Oxymetazoline HCl] (system: LMP1 expression in Kem I cells).
[reply] 0.72

[ask] Give the reported fold induction at 2.5 µM for `CCC(=O)NCC[C@@H]1CCc2ccc3c(c21)CCO3` (system: LMP1 expression in Kem I cells).
[reply] 0.22

[ask] Give the reported fold induction at 2.5 µM for `CC[C@@H]1C(=O)N(C)c2cnc(Nc3ccc(C(=O)NC4CCN(C)CC4)cc3OC)nc2N1C1CCCC1` (system: LMP1 expression in Kem I cells).
[reply] 1.89

[ask] Give the reported fold induction at 2.5 µM for O=C(C[S+]([O-])Cc1ccco1)NC/C=C\COc1cc(CN2CCCCC2)ccn1 (centres unmarked) (system: LMP1 expression in Kem I cells).
[reply] 0.76

[ask] Give the reported fold induction at 2.5 µM for C#CCC(Cc1cnc2nc(N)nc(N)c2n1)c1ccc(C(=O)N[C@@H](CCC(=O)O)C(=O)O)cc1 (some centres unmarked) [Pralatrexate] (system: LMP1 expression in Kem I cells).
[reply] 3.02

[ask] Give the reported fold induction at 2.5 µM for Nc1cccc2c1C(=O)N(C1CCC(=O)NC1=O)C2=O (centres unmarked) [Pomalidomide] (system: LMP1 expression in Kem I cells).
[reply] 7.87

[ask] Give the reported fold induction at 2.5 µM for `Cn1c(N2CCCCS2(=O)=O)nc(C(=O)NCc2ccc(F)cc2)c(O)c1=O` (system: LMP1 expression in Kem I cells).
[reply] 68

[ask] Give the reported fold induction at 2.5 µM for `Nc1nc(OCc2cc(Br)cs2)c2[nH]cnc2n1` (system: LMP1 expression in Kem I cells).
[reply] 1.61

[ask] Give the reported fold induction at 2.5 µM for CC(=O)O[C@]1(C(C)=O)CC[C@H]2[C@@H]3C=C(Cl)C4=CC(=O)[C@@H]5C[C@@H]5[C@]4(C)[C@H]3CC[C@@]21C [Cyproterone Acetate] (system: LMP1 expression in Kem I cells).
[reply] 0.24

====

# System: LMP1 expression in Kem I cells
# assay.info: microbe, parasite or virus in culture
# Assay type: cell-based, EBV
# setup.conditions: human gammaherpesvirus 4, 48 h, read-out: Replicate 2-LMP1 Fold Increase, Kem I cells, 2.5 uM, 48 hours, fold change in LMP1 transcript vs vehicle
experimental.readout: fold induction at 2.5 µM

Examples with answers:
INSERT INTO assay_data (compound, test_value) VALUES
  ('COc1ccc2cccc(CCNC(C)=O)c2c1', 0.52),
  ('COc1ccc(C2CNC(=O)C2)cc1OC1CCCC1 (stereo not drawn)', 0.75),
  ('COc1ccc2cc([C@H](C)C(=O)O)ccc2c1', 0.56),
  ('Cc1sc2c(c1C)C(c1ccc(Cl)cc1)=N[C@@H](CC(=O)Nc1ccc(O)cc1)c1nnc(C)n1-2', 1.12),
  ('O=C(Nc1cc(C(F)(F)F)cc(C(F)(F)F)c1)c1cc(Cl)ccc1O', 0.5);

[ask] Request the reported fold induction at 2.5 µM associated with `Cc1c(Cc2ccc3ccccc3n2)c2cc(F)ccc2n1CC(=O)O`
[reply] 0.48

====

# Tested on: LMP1 expression in Kem I cells
# assay.info: microbe, parasite or virus in culture
# Format: cell-based, EBV
# setup.conditions: human gammaherpesvirus 4, 48 h, read-out: Replicate 1-LMP1 Fold Increase, Kem I cells, 2.5 uM, 48 hours, fold change in LMP1 transcript vs vehicle
fold induction at 2.5 µM vs 0.8: at or above is 1.0, below is 0.0.

Field: example entries. Status: answers known.
INSERT INTO results (compound, label_class) VALUES
  ('CC(C)(C#N)c1cc(Cn2cncn2)cc(C(C)(C)C#N)c1 [Anastrozole]', 0.0),
  ('CC[C@H](C)C(=O)O[C@H]1C[C@@H](C)C=C2C=C[C@H](C)[C@H](CC[C@@H]3C[C@@H](O)CC(=O)O3)[C@H]21 [Lovastatin]', 0.0),
  ('CC(C)CC(=O)Nc1[nH]nc2c1CN(C(=O)C1CCN(C)CC1)C2(C)C [PHA-793887]', 0.0),
  ('O=C(NOC[C@H](O)CO)c1ccc(F)c(F)c1Nc1ccc(I)cc1F [PD0325901]', 0.0);

Below: the item to evaluate.
[ask] Check this compound for fold induction at 2.5 µM at or above 0.8: COc1ccc2nc([S@@+]([O-])Cc3ncc(C)c(OC)c3C)[nH]c2c1 [Esomeprazole Sodium]
[reply] 0.0
